Source: patent US10711036B2

Where a SMILES comes first, the peptide text is derived from it. The star is where a group is joined. Bz = O=C(c1ccccc1)*; CH2F = FC*
Here's a batch of molecules along with measured Ki for MALT1 (Homo sapiens (Human), UniProt Q9UDY8).
parameterMeasured: Ki (nM)

1: CC(C)[C@H](NC(=O)c1cccc2ccccc12)C(=O)N1CCC[C@H]1C(=O)N[C@@H](CCCNC(=N)N)C(=O)CF [Compound 153]
2: CC(C)[C@H](NC(=O)c1ccccc1)C(=O)N1CCC[C@H]1C(=O)N[C@@H](CCCNC(=N)N)C(=O)CF [Compound 113] (Bz-Val-Pro-Arg-CH2F)
Ask: Please indicate which item has the smaller measured Ki: 1 versus 2 Give the label under which the chosen entry appears.
Result: 2

====

Target: MALT1 (Homo sapiens (Human), UniProt Q9UDY8)
Sequence (Q9UDY8 whole entry): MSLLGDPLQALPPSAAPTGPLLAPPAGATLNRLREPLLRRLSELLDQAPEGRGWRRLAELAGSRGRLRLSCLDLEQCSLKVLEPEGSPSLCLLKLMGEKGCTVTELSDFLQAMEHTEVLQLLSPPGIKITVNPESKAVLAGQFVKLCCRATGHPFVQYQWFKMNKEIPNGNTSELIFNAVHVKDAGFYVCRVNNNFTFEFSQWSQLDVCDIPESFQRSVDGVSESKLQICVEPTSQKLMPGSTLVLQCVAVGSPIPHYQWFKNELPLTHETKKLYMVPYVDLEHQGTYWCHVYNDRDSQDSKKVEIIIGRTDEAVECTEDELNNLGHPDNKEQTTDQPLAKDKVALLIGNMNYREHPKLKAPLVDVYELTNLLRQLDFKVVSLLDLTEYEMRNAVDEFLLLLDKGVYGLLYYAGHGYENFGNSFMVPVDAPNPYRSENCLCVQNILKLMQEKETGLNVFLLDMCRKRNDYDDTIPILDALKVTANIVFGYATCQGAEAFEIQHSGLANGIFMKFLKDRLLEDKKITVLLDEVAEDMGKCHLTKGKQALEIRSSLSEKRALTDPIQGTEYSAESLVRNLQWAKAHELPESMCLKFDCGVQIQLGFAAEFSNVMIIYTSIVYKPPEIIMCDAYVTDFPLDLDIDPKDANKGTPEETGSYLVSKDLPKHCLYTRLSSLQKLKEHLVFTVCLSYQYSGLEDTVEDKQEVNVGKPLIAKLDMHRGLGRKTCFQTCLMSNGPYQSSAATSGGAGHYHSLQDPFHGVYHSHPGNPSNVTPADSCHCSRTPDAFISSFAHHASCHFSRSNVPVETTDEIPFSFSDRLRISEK
Where a SMILES comes first, the peptide text is derived from it. [ ]: non-standard residue; d: D form. The star is where a group is joined. Hydrocinnamoyl = O=C(CCc1ccccc1)*; αMeP = C[C@@]1(C(=O)O)CCCN1; Cbz = O=C(OCc1ccccc1)*; CH2F = FC*
parameterMeasured: Ki (nM)

CC(C)[C@H](NC(=O)OCc1ccccc1)C(=O)N[C@@H](CO)C(=O)N[C@@H](CCCNC(=N)N)C(=O)CF: 64
CC(C)[C@H](NC(=O)CCc1ccccc1)C(=O)N1CCC[C@H]1C(=O)N[C@@H](CCCNC(=N)N)C(=O)CF [Compound 119] (Hydrocinnamoyl-Val-Pro-Arg-CH2F): 43
CC(C)[C@H](NC(=O)c1ccc(Br)cc1)C(=O)N1C[C@H](O)C[C@H]1C(=O)N[C@@H](CCCNC(=N)N)C(=O)CF: 50

a: CC(C)[C@H](NC(=O)OCc1ccccc1)C(=O)N1CCC[C@@]1(C)C(=O)N[C@@H](CCCNC(=N)N)C(=O)CF [Compound 111] (Cbz-Val-[αMeP]-Arg-CH2F)
b: CC(C)[C@H](NC(=O)c1ccc(Cl)cc1)C(=O)N1CCC[C@H]1C(=O)N[C@@H](CCCNC(=N)N)C(=O)CF
c: CC(C)[C@H](NC(=O)c1cccc(OC(F)(F)F)c1)C(=O)N1CCC[C@H]1C(=O)N[C@@H](CCCNC(=N)N)C(=O)CF
Ask: Task for the reader: rank each entry by its Ki, from the minimum upward. # list labels per requested ordering
Result: c, b, a
(c: 15 nM, b: 67 nM, a: 158 nM)

====

Here's a batch of compounds along with measured pKi for MALT1 (Homo sapiens (Human), UniProt Q9UDY8).
pKi: −log10 of the molar value.
parameterMeasured: pKi

CC(C)[C@H](NC(=O)c1ccc(Br)cc1)C(=O)N1C[C@H](C#N)C[C@H]1C(=O)N[C@@H](CCCNC(=N)N)C(=O)CF [Compound 177]: 7.55

I: CC(C)[C@H](NC(=O)/C=C/c1ccccc1)C(=O)N1CCC[C@H]1C(=O)N[C@@H](CCCNC(=N)N)C(=O)CF [Compound 154]
II: N=C(N)NCCC[C@H](NC(=O)[C@@H]1CCCN1C(=O)[C@H](CC1CCCCC1)NC(=O)c1ccc(Br)cc1)C(=O)CF [Compound 187]
III: CC(C)[C@H](NC(=O)Nc1ccc(Cl)cc1)C(=O)N1CCC[C@H]1C(=O)N[C@@H](CCCNC(=N)N)C(=O)CF [Compound 164]
Ask: List from greatest to least pKi. # list labels per requested ordering
Result: I, III, II
(I: 7.44, III: 7.21, II: 6.91)
